Quantity measured: melting point (°C)
Please respond with the number in °C and leave the unit unwritten.

Take a look at these entries with their results.
COc1nc2ccc(Cl)cc2cc1[C@@H](c1ccccc1)[C@]1(c2cccc3ccccc23)CC[N+](C)(C)CO1.[I-] (single isomer, unassigned) | 211
COc1nc2ccc(Cl)cc2cc1[C@@H](c1ccccc1)[C@@]1(c2cccc3ccccc23)CCN(C)CO1 (single isomer, unassigned) [Compound 3] | 189

Inquiry: What does the record list as melting point for COc1nc2ccc(Cl)cc2cc1[C@@H](c1ccccc1)[C@@]1(c2cccc3ccccc23)CC[N+](C)(C)CO1.[I-] (single isomer, unassigned) ?
Reply text: 195

// data source = patent US7338949B2
